# SYSTEM UNDER TEST: Recombinant active human Cyclin E/CDK2 complexes (Homo sapiens)
# TEST: CDK2 FlashPlate Assay (inhibition of Rb phosphorylation)
# CONDITION LABEL: Cyclin E/CDK2, Rb substrate, 33P-ATP, 25 minutes at room temperature; read-out: Inhibition of Cdk2 - IC50 Range
pIC50: −log10 of the molar value.
Form field: pIC50 (one value per entry).

Record excerpt, results attached:
In [3]: df
Out[3]:
                            chemical_smiles                         system_under_test  experimental_value
0   Cc1[nH]nc2c1N=C(c1ccccc1F)c1cc(F)ccc1N2  Recombinant active human Cyclin E/CDK2 complexes (Homo sapiens)        6.00 to 8.00
1  O=Cc1[nH]nc2c1N=C(c1ccccc1Cl)c1cc([N+](=O)[O-])ccc1N2  Recombinant active human Cyclin E/CDK2 complexes (Homo sapiens)        6.00 to 8.00
2  O=[N+]([O-])c1ccc2c(c1)C(c1ccccc1Cl)=Nc1c(n[nH]c1-c1nccs1)N2  Recombinant active human Cyclin E/CDK2 complexes (Homo sapiens)        6.00 to 8.00
3    Cc1[nH]nc2c1N=C(c1ccccc1)c1cc(F)ccc1N2  Recombinant active human Cyclin E/CDK2 complexes (Homo sapiens)        6.00 to 8.00
4  CC(=O)Nc1ccc2c(c1)C(c1ccccc1Cl)=Nc1c(n[nH]c1C)N2  Recombinant active human Cyclin E/CDK2 complexes (Homo sapiens)        6.00 to 8.00
5  O=[N+]([O-])c1ccc2c(c1)C(c1ccccc1Cl)=Nc1c(n[nH]c1CO)N2  Recombinant active human Cyclin E/CDK2 complexes (Homo sapiens)        6.00 to 8.00
6  CC(C)Cc1[nH]nc2c1N=C(c1ccccc1Cl)c1cc([N+](=O)[O-])ccc1N2  Recombinant active human Cyclin E/CDK2 complexes (Homo sapiens)        5.00 to 6.00
7  CCc1[nH]nc2c1N=C(c1ccccc1Cl)c1cc([N+](=O)[O-])ccc1N2  Recombinant active human Cyclin E/CDK2 complexes (Homo sapiens)        6.00 to 8.00
8  Cc1[nH]nc2c1N=C(c1ccccc1)c1cc([N+](=O)[O-])ccc1N2  Recombinant active human Cyclin E/CDK2 complexes (Homo sapiens)        6.00 to 8.00
9     Fc1ccccc1C1=Nc2c[nH]nc2Nc2ccc(Cl)cc21  Recombinant active human Cyclin E/CDK2 complexes (Homo sapiens)        5.00 to 6.00

*Q* Recall the recorded pIC50 for O=[N+]([O-])c1ccc2c(c1)C(c1ccccc1Cl)=Nc1c(n[nH]c1-c1ccccc1[N+](=O)[O-])N2 with Recombinant active human Cyclin E/CDK2 complexes (Homo sapiens) and state it.
*A* 4.52 to 5.00

*Q* Can you check Clc1ccccc1C1=Nc2c[nH]nc2Nc2ccccc21 next?
*A* 6.00 to 8.00

*Q* // next record O=[N+]([O-])c1ccc2c(c1)C(c1ccccc1Cl)=Nc1c(n[nH]c1-c1ccc[nH]1)N2
*A* 6.00 to 8.00

*Q* How about Fc1ccccc1C1=Nc2c[nH]nc2Nc2ccc(I)cc21 ?
*A* 5.00 to 6.00

*Q* Cool, now Cc1[nH]nc2c1N=C(c1ccccc1Cl)c1ccccc1N2
*A* 6.00 to 8.00

*Q* # iterate: O=[N+]([O-])c1ccc2c(c1)C(c1ccccc1Cl)=Nc1c(n[nH]c1-c1ccccc1)N2
*A* 6.00 to 8.00

*Q* Next molecule: Cc1[nH]nc2c1N=C(c1ccccc1)c1ccccc1N2
*A* 6.00 to 8.00

*Q* Next up: N#Cc1[nH]nc2c1N=C(c1ccccc1Cl)c1cc([N+](=O)[O-])ccc1N2
*A* 6.00 to 8.00

*Q* Also, Fc1ccccc1C1=Nc2c[nH]nc2Nc2ccccc21 please.
*A* 5.00 to 6.00

*Q* Now this one: Cn1cccc1-c1[nH]nc2c1N=C(c1ccccc1Cl)c1cc([N+](=O)[O-])ccc1N2
*A* 5.00 to 6.00

----------
# SYSTEM UNDER TEST: Recombinant active human Cyclin E/CDK2 complexes (Homo sapiens)
# TEST: CDK2 FlashPlate Assay (inhibition of Rb phosphorylation)
# CONDITION LABEL: Cyclin E/CDK2, Rb substrate, 33P-ATP, 25 minutes at room temperature; read-out: Inhibition of Cdk2 - IC50 Range
Reported IC50 values for a set of molecules

>>> df
                                   molecule                         system_under_test  experimental_readout  experimental_value
0  CS(=O)(=O)c1ccc2c(c1)C(c1ccccc1)=Nc1c[nH]nc1N2  Recombinant active human Cyclin E/CDK2 complexes (Homo sapiens)                  IC50     1000 to 9990 nM
1  COCc1[nH]nc2c1N=C(c1ccccc1Cl)c1cc([N+](=O)[O-])ccc1N2  Recombinant active human Cyclin E/CDK2 complexes (Homo sapiens)                  IC50        10 to 990 nM
2  Cc1[nH]nc2c1N=C(c1ccccc1Cl)c1cc(N)ccc1N2  Recombinant active human Cyclin E/CDK2 complexes (Homo sapiens)                  IC50        10 to 990 nM

*Q* So what does the record say about IC50 for Cc1[nH]nc2c1N=C(c1ccccc1)c1cc(I)ccc1N2 ?
*A* 1000 to 9990 nM

*Q* Try the molecule Cc1[nH]nc2c1N=C(c1ccccc1F)c1cc(C#N)ccc1N2
*A* 10 to 990 nM

*Q* Check Cc1[nH]nc2c1N=C(c1ccccc1)c1cc(Cl)ccc1N2 too.
*A* 10 to 990 nM

*Q* Can you check Nc1ccc2c(c1)C(c1ccccc1Cl)=Nc1c[nH]nc1N2 next?
*A* 1000 to 9990 nM

*Q* Subsequent entry: O=[N+]([O-])c1ccc2c(c1)C(c1ccccc1Cl)=Nc1c[nH]nc1N2
*A* 10 to 990 nM

*Q* Okay, and c1ccc(C2=Nc3c[nH]nc3Nc3ccccc32)cc1 ?
*A* 1000 to 9990 nM

*Q* How about O=[N+]([O-])c1ccc2c(c1)C(c1ccccc1F)=Nc1c[nH]nc1N2 ?
*A* 10 to 990 nM

*Q* Same again, this time with O=[N+]([O-])c1ccc2c(c1)C(c1ccccc1)=Nc1c(n[nH]c1-c1ncc[nH]1)N2
*A* 1000 to 9990 nM

*Q* Request: C=CC(=O)Nc1ccc2c(c1)C(c1ccccc1Cl)=Nc1c(n[nH]c1C)N2
*A* 10 to 990 nM

----------
# Tested on: colon adenocarcinoma line SW480
# TEST: SW480 cell-based antiproliferative (MTT) assay
# CONDITION LABEL: Homo sapiens, SW480, 144 h, 1000 cells per well, 6 days post addition of test compound, read-out: Antiproliferative Activity SW480 (colon) Assay - IC50 Range
pIC50: −log10 of the molar value.
This listing pairs molecules with measured pIC50.

Known results for molecules:
                            chemical_smiles                system_under_test  experimental_readout  experimental_value
0  NC(=O)c1ccc2c(c1)C(c1ccccc1F)=Nc1c[nH]nc1N2  colon adenocarcinoma line SW480                 pIC50        5.00 to 5.96
1   Cc1[nH]nc2c1N=C(c1ccccc1F)c1cc(I)ccc1N2  colon adenocarcinoma line SW480                 pIC50        5.00 to 5.96
2    Cc1[nH]nc2c1N=C(c1ccccc1)c1cc(F)ccc1N2  colon adenocarcinoma line SW480                 pIC50        5.00 to 5.96
3  C=CC(=O)Nc1ccc2c(c1)C(c1ccccc1Cl)=Nc1c(n[nH]c1C)N2  colon adenocarcinoma line SW480                 pIC50        6.00 to 8.00
4  O=[N+]([O-])c1ccc2c(c1)C(c1ccccc1Cl)=Nc1c(n[nH]c1-c1ccco1)N2  colon adenocarcinoma line SW480                 pIC50        4.52 to 5.00
5  O=[N+]([O-])c1ccc2c(c1)C(c1ccccc1Cl)=Nc1c(n[nH]c1CO)N2  colon adenocarcinoma line SW480                 pIC50        6.00 to 8.00
6        c1ccc(C2=Nc3c[nH]nc3Nc3ccccc32)cc1  colon adenocarcinoma line SW480                 pIC50        4.52 to 5.00
7  O=[N+]([O-])c1ccc2c(c1)C(c1ccccc1Cl)=Nc1c[nH]nc1N2  colon adenocarcinoma line SW480                 pIC50        5.00 to 5.96
8  Cc1ccccc1-c1[nH]nc2c1N=C(c1ccccc1Cl)c1cc([N+](=O)[O-])ccc1N2  colon adenocarcinoma line SW480                 pIC50        4.52 to 5.00
9  O=[N+]([O-])c1ccc2c(c1)C(c1ccccc1Cl)=Nc1c(n[nH]c1CCc1ccccc1)N2  colon adenocarcinoma line SW480                 pIC50        4.52 to 5.00

*Q* So what's the measured pIC50 for this one? Nc1ccc2c(c1)C(c1ccccc1Cl)=Nc1c[nH]nc1N2
*A* 4.52 to 5.00

*Q* Now consider Cc1[nH]nc2c1N=C(c1ccccc1)c1cc(I)ccc1N2 and answer again.
*A* 4.52 to 5.00

*Q* # repeat for O=[N+]([O-])c1ccc2c(c1)C(c1ccccc1Cl)=Nc1c(n[nH]c1C1CC1)N2
*A* 5.00 to 5.96

*Q* Another molecule to look at: Clc1ccccc1C1=Nc2c[nH]nc2Nc2ccccc21
*A* 4.52 to 5.00

*Q* Next entry: Cc1[nH]nc2c1N=C(c1ccccc1F)c1ccccc1N2
*A* 6.00 to 8.00

*Q* What would you report for Cc1[nH]nc2c1N=C(c1ccccc1)c1cc([N+](=O)[O-])ccc1N2 ?
*A* 6.00 to 8.00

*Q* Cc1[nH]nc2c1N=C(c1ccccc1Cl)c1ccccc1N2 , same question.
*A* 5.00 to 5.96
